- STUDY_SYSTEM: T1, EPS15 (human (endogenous in Jurkat), UniProt P42566 1-896)
- T1 construct: EPS15, EH protein with three EH domains, endogenous in Jurkat E6.1 extract, detected by western blot with an EPS15 antibody; also called endogenous EPS15; EH protein with three EH domains; source: endogenous, total Jurkat extract
- T1 sequence (looked up): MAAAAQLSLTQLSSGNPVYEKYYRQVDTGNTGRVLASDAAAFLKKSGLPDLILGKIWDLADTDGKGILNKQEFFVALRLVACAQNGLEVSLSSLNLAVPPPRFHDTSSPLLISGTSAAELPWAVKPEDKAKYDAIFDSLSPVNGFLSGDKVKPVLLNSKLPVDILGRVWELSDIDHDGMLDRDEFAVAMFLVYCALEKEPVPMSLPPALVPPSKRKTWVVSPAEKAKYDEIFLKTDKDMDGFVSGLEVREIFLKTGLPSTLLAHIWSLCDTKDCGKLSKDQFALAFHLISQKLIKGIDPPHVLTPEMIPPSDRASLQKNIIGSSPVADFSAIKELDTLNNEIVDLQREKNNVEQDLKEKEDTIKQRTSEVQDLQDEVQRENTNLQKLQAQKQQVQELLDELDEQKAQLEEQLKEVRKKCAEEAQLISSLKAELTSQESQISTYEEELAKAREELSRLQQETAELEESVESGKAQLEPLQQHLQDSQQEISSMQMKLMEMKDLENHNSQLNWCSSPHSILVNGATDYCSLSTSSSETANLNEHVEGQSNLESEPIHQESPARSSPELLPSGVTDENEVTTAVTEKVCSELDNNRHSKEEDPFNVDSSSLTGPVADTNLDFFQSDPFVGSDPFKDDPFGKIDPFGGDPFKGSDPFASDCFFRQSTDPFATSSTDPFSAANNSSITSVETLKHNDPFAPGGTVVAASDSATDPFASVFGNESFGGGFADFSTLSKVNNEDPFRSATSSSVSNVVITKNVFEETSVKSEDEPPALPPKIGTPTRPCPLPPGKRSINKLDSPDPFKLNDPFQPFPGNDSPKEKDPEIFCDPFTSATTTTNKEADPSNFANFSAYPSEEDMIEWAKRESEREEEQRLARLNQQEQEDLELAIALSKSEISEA
- EXPERIMENT_NOTES: native holdup (nHU) titration with western blot; biotinylated peptide bait on streptavidin resin, bait-saturated and control (biotin) resin mixed at various proportions; total Jurkat extract as analyte; 4 °C, 2 h; endogenous POLE and EPS15 left in the supernatant quantified by western blot; apparent dissociation constants
- STATED_CONDITIONS: one partner purified
pKd: −log10 of the molar value. *: point of attachment. Biotin = O=C1N[C@H]2[C@H](CS[C@H]2CCCCC(=O)*)N1; TTDS = Trioxatridecan-succinamic acid linker
MEASUREMENT_NAME: pKd

Consider {Biotin-TTDS}-GPAAARRNPFARLDNRPR-NH2 (Protein downstream neighbor of Son (DONSON), residues 71-88; also called DONSON_71-88; DONSON_718-88 (as printed in the sheet); source: synthetic peptide (ABI 443 A synthesizer, Fmoc strategy)) [NPF motif peptide of DONSON (residues 71-88)] . Its measured pKd is < 4.22
